PROPERTY: melting point

- SMILES: "COc1ccc2[nH]c(C)c(CC(=O)N/N=C/c3ccc(OC)c(OC)c3OC)c2c1"
  PROPERTY: "melting point"
  READOUT VALUE: "250 to 252 °C"
- SMILES: "COc1ccc2[nH]c(C)c(CC(=O)N/N=C/c3ccc(N(C)C)cc3)c2c1"
  PROPERTY: "melting point"
  READOUT VALUE: "200 to 202 °C"
- SMILES: "CCOc1ccc(/C=N/NC(=O)Cc2c(C)[nH]c3ccc(OC)cc23)cc1"
  PROPERTY: "melting point"
  READOUT VALUE: "213 to 215 °C"
- SMILES: "COc1ccc2[nH]c(C)c(CC(=O)N/N=C/c3ccccc3[N+](=O)[O-])c2c1"
  PROPERTY: "melting point"
  READOUT VALUE: "210 to 212 °C"
